# experimentalTarget: Induced myeloid leukemia cell differentiation protein Mcl-1 (Homo sapiens)
# Sequence (Q07820 whole entry): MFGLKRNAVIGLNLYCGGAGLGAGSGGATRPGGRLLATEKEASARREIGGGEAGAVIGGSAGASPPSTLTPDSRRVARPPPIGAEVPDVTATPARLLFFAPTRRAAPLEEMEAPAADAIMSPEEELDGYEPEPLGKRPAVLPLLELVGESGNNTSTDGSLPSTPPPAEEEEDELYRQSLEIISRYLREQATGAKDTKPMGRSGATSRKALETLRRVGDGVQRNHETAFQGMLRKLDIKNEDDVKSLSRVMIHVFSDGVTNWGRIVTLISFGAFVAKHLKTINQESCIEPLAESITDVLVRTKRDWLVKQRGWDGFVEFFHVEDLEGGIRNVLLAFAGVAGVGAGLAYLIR
# methodNotes: Inhibition of Mcl-1 (unknown origin)/Bid interaction preincubated for 5 mins followed by fluorescein-labeled peptide addition and measured after 10 mins by fluorescein-labeled peptide displacement based fluorescence polarization assay
Consider the following compounds and their measured Ki readings.

Study these solved cases before continuing.
[
  {
    "molSmiles": "COC(=O)c1ccc(NC(=O)[C@@H]2CC=C(CCC=C(C)C)C[C@H]2c2ccccc2)cc1",
    "measuredQuantity": "Ki",
    "reportedResult": "> 33 µM"
  },
  {
    "molSmiles": "CC(C)=CCCC1=CC[C@@H](C(=O)Nc2ccc(C(=O)O)cc2)[C@H](c2ccccc2)C1",
    "measuredQuantity": "Ki",
    "reportedResult": "> 33 µM"
  }
]

Output Ki of COc1ccc(NC(=O)[C@@H]2CC=C(CCC=C(C)C)C[C@H]2c2ccccc2)cc1 > 33 µM
